- targetDesc: human SGLT2 (Homo sapiens, UniProt P31639)
- Sequence (P31639 1-672): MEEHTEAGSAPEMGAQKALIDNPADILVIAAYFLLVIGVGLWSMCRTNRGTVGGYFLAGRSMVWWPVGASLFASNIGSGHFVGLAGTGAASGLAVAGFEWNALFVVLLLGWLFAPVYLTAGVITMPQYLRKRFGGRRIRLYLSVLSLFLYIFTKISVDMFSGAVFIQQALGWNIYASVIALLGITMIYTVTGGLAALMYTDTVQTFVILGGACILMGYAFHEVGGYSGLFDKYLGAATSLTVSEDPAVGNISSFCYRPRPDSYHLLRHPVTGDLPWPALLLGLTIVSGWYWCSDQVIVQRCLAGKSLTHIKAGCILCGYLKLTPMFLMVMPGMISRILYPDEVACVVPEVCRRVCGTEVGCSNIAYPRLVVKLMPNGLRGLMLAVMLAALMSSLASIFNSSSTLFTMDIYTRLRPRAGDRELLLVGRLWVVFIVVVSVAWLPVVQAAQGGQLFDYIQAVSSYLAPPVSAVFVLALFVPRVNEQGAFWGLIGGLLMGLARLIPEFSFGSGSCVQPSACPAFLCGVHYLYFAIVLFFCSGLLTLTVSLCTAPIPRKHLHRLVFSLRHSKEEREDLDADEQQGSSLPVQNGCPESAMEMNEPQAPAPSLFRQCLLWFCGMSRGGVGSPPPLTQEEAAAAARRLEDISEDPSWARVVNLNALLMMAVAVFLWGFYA
- protocolSummary: SGLT2 assay: Na-dependent 14C-AMG uptake in CHO-K1 cells stably expressing human SGLT2
- experimentalConditions: 500 μM AMG, 2 hours at 37° C.
quantityName: IC50 (nM)

Here's what some known entries look like.
[2H]C1([2H])Cc2ccc(Cc3cc([C@@H]4O[C@H](CO)[C@@H](O)[C@H](O)[C@H]4O)ccc3Cl)cc21 (single isomer, unassigned) [Compound 62] | 9
Cc1cc(Cc2ccc3c(c2)CC3)cc([C@@H]2O[C@H](CO)[C@@H](O)[C@H](O)[C@H]2O)c1O [Compound 27] | 1
COc1cc(C)c(Cc2ccc3c(c2)CC3)cc1[C@@H]1O[C@H](CO)[C@@H](O)[C@H](O)[C@H]1O [Compound 7] | 1

A = Cc1cc(OC2CC2)c([C@@H]2O[C@H](CO)[C@@H](O)[C@H](O)[C@H]2O)cc1Cc1ccc2c(c1)CC2 [Compound 118]
B = CCc1ccc([C@@H]2O[C@H](CO)[C@@H](O)[C@H](O)[C@H]2O)cc1Cc1ccc2c(c1)CC2 [Compound 4]
C = CCc1cc(OC2CC2)c([C@@H]2O[C@H](CO)[C@@H](O)[C@H](O)[C@H]2O)cc1Cc1ccc2c(c1)CC2 [Compound 116]
Query :: Sort ascending by IC50. Answer by listing the labels in the order asked for.
Result :: A, C, B

Cited source for all entries: patent US10815210B2
